Target: CETP (Homo sapiens, UniProt P11597)
Assay: CETP in vitro assay ([3H]CE-HDL transfer, Amersham kit TRKQ7005; modified protocol in human plasma)
Conditions: multiple values = multiple measurements
PROPERTY_LABEL: IC50
Answer with the figure and its unit, nothing else.

Recorded results for 5 compounds are shown here.
{"columns": ["COMPOUND", "TEST_TARGET", "IC50"],
 "data": [
  ["O[C@@H](CN1c2cccc(-c3cc(C(F)(F)F)cc(C(F)(F)F)c3)c2OC[C@@H]1c1cccc(OC(F)(F)C(F)F)c1)C(F)(F)F [Compound 78]", "CETP (Homo sapiens, UniProt P11597)", "580 nM"],
  ["O[C@@H](CN1c2cccc(-c3cc(F)c(F)c(F)c3)c2OC[C@@H]1c1cccc(OC(F)(F)F)c1)C(F)(F)F [Compound 82]", "CETP (Homo sapiens, UniProt P11597)", "94 nM"],
  ["OC(CF)CN1c2cccc(-c3cccc(OC(F)(F)F)c3)c2OC[C@@H]1c1cccc(OC(F)(F)C(F)F)c1 (stereo in doubt) [Compound 74]", "CETP (Homo sapiens, UniProt P11597)", "14 nM"],
  ["CCOc1cccc(C2COc3c(-c4cccc(OC(F)(F)F)c4)cccc3N2CC(O)C(F)(F)F)c1 (stereo not shown) [Compound 17]", "CETP (Homo sapiens, UniProt P11597)", "490 nM"],
  ["O[C@H](CN1c2cccc(-c3cc(F)cc(F)c3)c2OC[C@@H]1c1cccc(OC(F)(F)C(F)F)c1)C(F)(F)F [Compound 73]", "CETP (Homo sapiens, UniProt P11597)", "460 nM"]
]}

For every item in the list below, what is its measured IC50?
1. OC(CN1c2cccc(-c3cccc(F)c3)c2OCC1c1cccc(OC(F)(F)C(F)F)c1)C(F)(F)F (single isomer, unassigned) [Compound 67]
2. OC(CN1c2cccc(-c3cccc(OC(F)(F)F)c3)c2OCC1c1cccc(SC(F)(F)F)c1)C(F)(F)F (stereo not shown) [Compound 15]
3. O[C@H](CN1c2cccc(-c3cc(C(F)(F)F)cc(C(F)(F)F)c3)c2OC[C@@H]1c1cccc(OC(F)(F)C(F)F)c1)C(F)(F)F [Compound 79]
4. OC(CF)CN1c2cccc(-c3cccc(OC(F)(F)F)c3)c2OC[C@@H]1c1cccc(OC(F)(F)C(F)F)c1 (stereo in doubt) [Compound 75]
5. OC(CN1c2cccc(-c3cc(F)cc(F)c3)c2OCC1c1cccc(OC(F)(F)C(F)F)c1)C(F)(F)F (single isomer, unassigned) [Compound 65]

1. 780 nM
2. 360 nM
3. 5000 nM
4. 147 nM
5. 990 nM

---

Target: CETP (Homo sapiens, UniProt P11597)
Construct: from tissue; host or cells: human plasma from normal volunteers
Sequence (P11597 18-493): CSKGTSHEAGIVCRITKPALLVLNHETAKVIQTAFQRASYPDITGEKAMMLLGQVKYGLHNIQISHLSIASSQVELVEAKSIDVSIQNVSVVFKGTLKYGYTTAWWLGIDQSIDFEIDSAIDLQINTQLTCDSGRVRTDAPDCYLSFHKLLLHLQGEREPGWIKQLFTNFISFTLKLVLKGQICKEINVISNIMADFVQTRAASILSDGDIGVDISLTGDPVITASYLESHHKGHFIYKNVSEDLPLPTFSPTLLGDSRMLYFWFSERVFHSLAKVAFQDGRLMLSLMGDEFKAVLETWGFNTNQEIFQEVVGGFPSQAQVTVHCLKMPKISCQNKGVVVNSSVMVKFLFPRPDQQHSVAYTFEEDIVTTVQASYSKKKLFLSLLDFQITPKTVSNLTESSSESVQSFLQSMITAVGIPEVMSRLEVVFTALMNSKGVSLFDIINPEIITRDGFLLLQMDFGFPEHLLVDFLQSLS
Assay: CETP in vitro assay ([3H]CE-HDL transfer, Amersham kit TRKQ7005; modified protocol in human plasma)
Type: biochemical
Settings: 1 μM compound; multiple values = multiple measurements; 1 µM
Response field label takes YES when % Inhibition @ 1 μM is strictly below 10% and NO in all other cases.

{"columns": ["COMPOUND", "CATEGORY_LABEL"],
 "data": [
  ["O[C@H](CN1c2cccc(-c3cc(F)c(F)c(F)c3)c2OC[C@@H]1c1cccc(OC(F)(F)C(F)F)c1)C(F)(F)F", "NO"],
  ["COc1cccc(C2COc3c(-c4cccc(OC(F)(F)F)c4)cccc3N2CC(O)C(F)(F)F)c1 (stereo not shown) [Compound 99]", "NO"],
  ["OC(CN1c2cccc(-c3cccc(OC(F)(F)F)c3)c2OCC1c1ccccc1OC(F)(F)C(F)F)C(F)(F)F (stereo not shown) [Compound 92]", "YES"],
  ["CC(C)(C)C(=O)CC1COc2c(-c3cccc(OC(F)(F)F)c3)cccc2N1CC(O)C(F)(F)F (stereo not shown) [Compound 56]", "YES"],
  ["CC(C)C(O)CN1c2cccc(-c3cccc(OC(F)(F)F)c3)c2OCC1c1cccc(OC(F)(F)C(F)F)c1 (stereo not shown)", "NO"]
]}

A record lists OC(CN1c2cccc(-c3cccc(OC(F)(F)F)c3)c2OCC1c1cccc(OC(F)(F)F)c1)C(F)(F)F (stereo not shown) . Is its % Inhibition @ 1 μM below 10%?
NO

These data points were gathered from patent US8012963B2.
